# Tested on: Staphylococcus aureus
# protocol-description: Antibacterial activity against Staphylococcus aureus expressing AAC(6')/APH(2'')
# Type: functional
Hi there, I'd appreciate the recorded MIC for every entry that follows.

Field MIC (entry NCC1O[C@H](O[C@H]2[C@@H](O)[C@H](O[C@H]3[C@H](O)[C@@H](N)C[C@@H](N)[C@@H]3O[C@H]3O[C@H](CN)[C@@H](O)[C@H](O)[C@H]3N)O[C@@H]2CO)[C@H](N)[C@@H](O)[C@@H]1O (some centres undefined) ) reads > 64 µg/mL

Field MIC (entry "CN[C@@H](C)[C@@H]1CC[C@@H](N)[C@@H](O[C@H]2[C@H](O)[C@@H](O[C@H]3OC[C@](C)(O)[C@H](NC)[C@H]3O)[C@H](N)C[C@@H]2N)O1" ) reads > 64 µg/mL

Field MIC (entry NCC[C@H](O)C(=O)N[C@@H]1C[C@H](N)[C@@H](O[C@H]2O[C@H](CN)[C@@H](O)[C@H](O)[C@H]2O)[C@H](O)[C@H]1O[C@H]1O[C@H](CO)[C@@H](O)[C@H](N)[C@H]1O [AMIKACIN] ) reads 64 µg/mL

Field MIC (entry "NCC[C@H](O)C(=O)N[C@@H]1C[C@H](N)[C@@H](O[C@H]2O[C@H](CO)[C@@H](O)[C@H](O)[C@H]2N)[C@H](O[C@@H]2O[C@H](CO)[C@@H](O[C@H]3O[C@@H](CN)[C@@H](O)[C@H](O)[C@H]3N)[C@H]2O)[C@H]1O" ) reads 32 µg/mL

Field MIC (entry CN[C@@H]1[C@@H](O)[C@@H](O[C@@H]2[C@@H](O)[C@H](O[C@H]3OC(CN)=CC[C@H]3N)[C@@H](N)C[C@H]2N)OC[C@]1(C)O [SISOMICIN] ) reads > 64 µg/mL

Field MIC (entry "CNCC1=CC[C@H](N)[C@H](O[C@H]2[C@H](O[C@@H]3O[C@H](CO)[C@@H](O[C@@H]4O[C@H](CN)[C@H](O)[C@@H](O)[C@@H]4N)[C@H]3O)[C@@H](O)[C@H](N)C[C@@H]2N)O1" ) reads > 64 µg/mL

Field MIC (entry NCC1=CC[C@H](N)[C@H](O[C@H]2[C@H](O[C@@H]3O[C@H](CO)[C@@H](O[C@@H]4O[C@H](CN)[C@H](O)[C@@H](O)[C@@H]4N)[C@H]3O)[C@@H](O)[C@H](N)C[C@@H]2N)O1 (stereo in doubt) ) reads 64 µg/mL

Field MIC (entry NC[C@H]1O[C@@H](O[C@H]2[C@@H](O)[C@H](O[C@@H]3[C@@H](O)[C@H](N)C[C@H](N)[C@H]3O[C@@H]3OC(CO)=CC[C@@H]3N)O[C@@H]2CO)[C@@H](N)[C@H](O)[C@H]1O (stereo in doubt) ) reads > 64 µg/mL

Field MIC (entry "N[C@@H]1CC=C(CO)O[C@@H]1O[C@H]1[C@H](O[C@@H]2O[C@H](CO)[C@@H](O)[C@H]2O)[C@@H](O)[C@H](N)C[C@@H]1N" ) reads > 64 µg/mL
